ASSAYED_TARGET: EP2 (Homo sapiens, UniProt P43116)
Sequence (P43116 whole entry): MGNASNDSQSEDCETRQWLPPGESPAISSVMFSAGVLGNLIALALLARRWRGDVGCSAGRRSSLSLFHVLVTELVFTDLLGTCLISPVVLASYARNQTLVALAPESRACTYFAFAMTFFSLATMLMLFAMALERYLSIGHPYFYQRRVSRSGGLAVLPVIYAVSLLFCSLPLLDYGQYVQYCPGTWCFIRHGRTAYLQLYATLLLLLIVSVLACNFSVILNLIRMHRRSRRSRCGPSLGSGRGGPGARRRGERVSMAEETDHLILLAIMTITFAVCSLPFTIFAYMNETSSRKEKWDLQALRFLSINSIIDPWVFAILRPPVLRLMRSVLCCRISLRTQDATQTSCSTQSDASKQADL
ASSAY_COMMENT: EP2 Ca2+ EC50 (in vitro testing)
Type: cell-based
Below is a list of entries, each paired with its recorded EC50 value.
Express your answer in nM, writing the number without its unit.

Previously resolved entries follow.
>>> reported_measurement("CCCCCC(O)c1ccc(C2=C(C)CC[C@@H]2CCCc2ccc(C(=O)O)s2)cc1 (some centres unmarked) [drawing 88]")
193
>>> reported_measurement("CCCCCC(O)c1ccc(C2=C(C#N)CC[C@@H]2CCCc2ccc(C(=O)O)s2)cc1 (single isomer, unassigned) [drawing 85]")
65
>>> reported_measurement("CCCCC[C@@H](O)c1ccc(C2=CCC[C@@H]2CCCc2ccc(C(=O)O)s2)cc1 [drawing 87]")
36

Given the molecule "CCCCC[C@@H](O)c1ccc(C2=C(Cl)CC[C@@H]2CCCc2ccc(C(=O)O)s2)cc1" , write its reported EC50.
83

Return reported EC50. Input molecule: CCCCCC(O)c1ccc(C2=C(O)C(=O)C[C@@H]2C/C=C\CCCC(=O)O)cc1 (some centres unmarked) [drawing 82]
442
